applied conditions: 25 °C
Binned solubility; ranges: lower level: < 4 mM; middle level: ≥ 4 mM and < 60 mM; upper level: ≥ 60 mM

Example results:
{"molecule": "ClC(Cl)(Cl)Cl", "category": "middle level"}
{"molecule": "C=C(F)F", "category": "upper level"}
{"molecule": "CBr", "category": "upper level"}
{"molecule": "BrC=CBr", "category": "middle level"}
{"molecule": "FC(F)(F)Br", "category": "lower level"}
{"molecule": "CC(Cl)CCl (stereo not given)", "category": "middle level"}
{"molecule": "BrC(Br)Br", "category": "middle level"}
{"molecule": "FC(F)Cl", "category": "middle level"}
{"molecule": "FC(Cl)Cl", "category": "upper level"}
{"molecule": "ClCCl", "category": "upper level"}

Input line: Classify this molecule: FC(F)(F)C(F)(F)Cl
Output line: lower level

Input line: Given Clc1ccccc1 , name the class its solubility places it in.
Output line: middle level

Input line: Record FC(F)(F)F — which class?
Output line: lower level

Input line: Which bin, given its solubility, does FC(F)=C(F)F occupy?
Output line: lower level

* * *

applied conditions: 20 °C
So I've got a bunch of compounds here, and I need their solubility values.
Give bare numbers, in mM.

{"smiles code": "CI", "unit spec": "mM", "solubility": 97.2}

Continue with the compound presented below.
Input line: Fill blank: measured solubility of the compound CF is ____.
Output line: 667

# credit: the OPERA property sets (Mansouri et al. 2018)
